Biological target: SWI/SNF-related matrix-associated actin-dependent regulator of chromatin subfamily A member 2 (Homo sapiens) (UniProt P51531)
Sequence (P51531 whole entry): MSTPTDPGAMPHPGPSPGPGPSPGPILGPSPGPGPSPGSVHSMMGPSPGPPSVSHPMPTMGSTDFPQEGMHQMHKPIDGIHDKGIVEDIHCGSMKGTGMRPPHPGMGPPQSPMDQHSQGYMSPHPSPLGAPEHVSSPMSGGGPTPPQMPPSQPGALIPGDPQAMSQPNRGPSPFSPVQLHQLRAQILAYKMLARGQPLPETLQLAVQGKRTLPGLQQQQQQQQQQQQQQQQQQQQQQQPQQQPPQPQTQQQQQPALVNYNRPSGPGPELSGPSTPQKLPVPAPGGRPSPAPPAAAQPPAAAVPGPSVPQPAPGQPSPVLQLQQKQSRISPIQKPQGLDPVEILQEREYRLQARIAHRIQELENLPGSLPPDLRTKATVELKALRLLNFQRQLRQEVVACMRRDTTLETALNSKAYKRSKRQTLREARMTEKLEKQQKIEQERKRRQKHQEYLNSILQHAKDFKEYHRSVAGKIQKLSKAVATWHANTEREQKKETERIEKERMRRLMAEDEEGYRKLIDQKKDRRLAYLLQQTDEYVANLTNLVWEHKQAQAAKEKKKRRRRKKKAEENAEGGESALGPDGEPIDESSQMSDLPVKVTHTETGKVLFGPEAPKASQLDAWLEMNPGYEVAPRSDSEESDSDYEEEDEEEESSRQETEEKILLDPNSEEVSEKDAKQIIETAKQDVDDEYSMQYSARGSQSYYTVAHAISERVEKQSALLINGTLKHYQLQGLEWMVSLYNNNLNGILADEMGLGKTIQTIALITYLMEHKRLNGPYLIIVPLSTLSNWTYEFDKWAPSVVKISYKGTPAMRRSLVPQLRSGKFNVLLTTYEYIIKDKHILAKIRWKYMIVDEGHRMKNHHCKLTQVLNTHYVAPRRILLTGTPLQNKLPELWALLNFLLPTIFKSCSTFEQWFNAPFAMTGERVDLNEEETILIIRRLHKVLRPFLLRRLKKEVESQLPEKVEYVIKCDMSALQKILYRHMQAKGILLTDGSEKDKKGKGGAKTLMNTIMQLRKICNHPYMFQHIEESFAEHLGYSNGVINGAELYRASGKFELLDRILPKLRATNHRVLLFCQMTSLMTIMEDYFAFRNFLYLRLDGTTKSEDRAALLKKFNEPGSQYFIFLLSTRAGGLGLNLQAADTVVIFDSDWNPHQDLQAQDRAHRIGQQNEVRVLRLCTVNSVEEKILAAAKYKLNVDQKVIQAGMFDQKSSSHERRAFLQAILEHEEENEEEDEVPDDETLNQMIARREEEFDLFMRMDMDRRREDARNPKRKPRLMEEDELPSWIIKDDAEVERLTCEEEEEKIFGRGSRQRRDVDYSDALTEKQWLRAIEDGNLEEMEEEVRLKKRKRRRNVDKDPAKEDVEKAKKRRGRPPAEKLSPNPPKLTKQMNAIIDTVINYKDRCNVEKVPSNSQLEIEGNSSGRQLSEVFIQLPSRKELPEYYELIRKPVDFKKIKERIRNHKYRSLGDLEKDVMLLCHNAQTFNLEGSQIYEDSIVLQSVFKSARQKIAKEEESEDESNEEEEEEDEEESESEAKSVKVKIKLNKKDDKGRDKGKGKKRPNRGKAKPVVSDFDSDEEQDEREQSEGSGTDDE
Settings: dose 200.0 µM, time 30.0 min
Please go through the items and note down their ΔTm.
One number for each entry, in °C.

CC(=O)c1cc(C(=O)Nc2cc(C(C)O)cc(-c3cnn(C4CC4)c3)c2F)c2cc(N)ccn12 (stereo unspecified) :: -0.3
CC(=O)c1cc(C(=O)Nc2cc(CO)cc(-c3cnn(C)c3)c2F)c2cc(N)ccn12 :: -0.3
CO[C@H]1CC[C@H](n2c([C@@H]3CCCC(=O)N3c3ccc(F)c(F)c3)nc3cc(-c4c(C)noc4C)ccc32)CC1 [INOBRODIB] :: 0
CC(=O)c1cc(C(=O)Nc2cc(CO)cc(-c3cnn(C4CC4)c3)c2F)c2cc(OC(=O)N(C)C)ccn12 :: -0.3
C[C@@H]1CC(=O)Nc2cccc(-c3ccc4c(c3)c(-c3cnn(C)c3)nn4C)c2N1 :: -0.3

In the following, a different compound is considered.
Name the recorded ΔTm of the item COc1ccn2c(C(C)=O)cc(C(=O)Nc3cc(C(C)O)cc(-c4cnn(C5CC5)c4)c3F)c2c1 (stereo unspecified) in your answer.
-0.5
